Biological target: mouse RORγ (Mus musculus, UniProt P51450)
Construct: mouse, NM_011281.2 and from Ile251 to Lys516; expressed in transfected cells; host or cells: CHO cells (transient co-transfection with pG5-Luc reporter)
Sequence (P51450 251-516): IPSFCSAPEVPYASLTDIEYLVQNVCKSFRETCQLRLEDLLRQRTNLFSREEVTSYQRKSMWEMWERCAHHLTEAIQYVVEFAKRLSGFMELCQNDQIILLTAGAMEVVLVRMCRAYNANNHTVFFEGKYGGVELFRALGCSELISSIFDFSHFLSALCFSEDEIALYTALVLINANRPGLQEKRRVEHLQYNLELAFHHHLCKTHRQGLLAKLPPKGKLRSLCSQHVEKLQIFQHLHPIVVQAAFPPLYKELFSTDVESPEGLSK
Assay: Luciferase reporter gene assay of inhibitory effect against RORγ transcriptional activity (GAL4-mRORγ plasmid in CHO cells)
Type: cell-based
Conditions: read-out: LUC EC50 (μM) mRORg
reportedProperty: EC50

Recorded EC50, per entry:
>>> df
                                   compound  result
0  Cc1ccc(NC(=O)CCc2nnc(C3CC(CC(=O)OC(C)(C)C)C3)n2C2CC2)c(C)c1 (mixture of isomers) [Example F-427]  < 3 µM
1  Cc1c(Cl)cccc1NC(=O)CCc1nnc(CC(=O)O)n1C1CC1 [Example F-264]  > 3 µM
2  Cc1cccc(C)c1NC(=O)CCc1nnc(CCC(C)C)n1C1CC1 [Example F-70]  > 3 µM
3  CC(=O)N1C[C@H](C(=O)Nc2ccc(C)cc2C)[C@@H](c2nnc(C3CN(S(=O)(=O)C(C)C)C3)n2C2CC2)C1 (racemic) [Example F-418]  > 3 µM
4  Cc1ccc(NC(=O)C[C@H](CCCC(=O)O)c2noc(-c3cc(CCC(C)C)on3)c2C2CC2)c(Cl)c1 [Example E-21]  < 3 µM

For every item below, please supply its EC50.
1. Cc1ccc(NC(=O)C[C@H](CCC(=O)O)c2noc(-c3noc(CC(C)C)n3)c2C2CC2)c(Cl)c1 [Example E-11]
2. COc1cc(F)ccc1CNC(=O)CCc1nnc(CCC(C)C)n1C1CC1 [Example F-229]
3. CCOC(=O)CO[C@@H](CC(=O)Nc1ccc(C)cc1C)c1nnc([C@H]2C[C@@H](CC(C)C)C2)n1C1CC1 [Example F-433]
4. Cc1ccc(NC(=O)[C@H]2CCCN(C(=O)CO)[C@@H]2c2nnc(CCCC(C)(C)C)n2C2CC2)c(C)c1 [Example F-308]

output:
["< 3 µM", "> 3 µM", "< 3 µM", "< 3 µM"]

For every item below, please supply its EC50.
1. COc1cc(C)ccc1CNC(=O)[C@H]1CN(C(C)=O)C[C@@H]1c1nnc(CCC2CCCCC2)n1C1CC1 (racemic) [Example F-173]
2. CC1(c2cc(-c3onc([C@@H](CCC(=O)O)CC(=O)Nc4ccc(Cl)cc4F)c3C3CC3)no2)CCCC1 [Example E-71]
3. CC(C)(C)C(F)(F)c1cc(-c2onc([C@@H](CCC(=O)O)CC(=O)Nc3ccc(Cl)cc3F)c2C2CC2)no1 [Example E-49]

output:
1. < 3 µM
2. < 3 µM
3. < 3 µM
